# measured_on: T1, 4H2760-bH
# T1 chain: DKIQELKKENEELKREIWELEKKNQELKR
# experimental_details: two-hybrid library CCNG1;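 further: natural log of median RNA to DNA barcode read ratio; higher means stronger binding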
Param label: returns Yes when interaction score < 0.2, returns No otherwise, including exact equality.

INPUT: In plain terms, does DEIQELEKKIEELEREIWELEKKNQELKR [4H264-bH] come in under 0.2 for interaction score?
OUTPUT: No

INPUT: Same thing, different binder: DKIQELKKENEELKREIWELEKKNQELKR [4H2760-bH]
OUTPUT: No

INPUT: Same thing, different binder: DEIQELEKENEELERKIWELEKKIQELKR [4H166-bH]
OUTPUT: No

INPUT: Same thing, different binder: DKIQELEKENEELERKNWELKKEIQELER [4H2233-bH]
OUTPUT: Yes

INPUT: Same thing, different binder: DEIQELEKENEELKRKIWELKKENQELER [4H235-bH]
OUTPUT: No

INPUT: Same thing, different binder: DKIQELEKKNEELEREIWELKKENQELKR [4H2444-bH]
OUTPUT: No

INPUT: Same thing, different binder: DKIQELEKENEELKREIWELKKKIQELER [4H2253-bH]
OUTPUT: No

INPUT: Same thing, different binder: DKIQELKKEIEELERENWELKKEIQELER [4H2585-bH]
OUTPUT: No

INPUT: Same thing, different binder: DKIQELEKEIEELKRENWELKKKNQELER [4H2143-bH]
OUTPUT: Yes

INPUT: Same thing, different binder: DKIQELEKKNEELKRENWELEKKIQELKR [4H2518-bH]
OUTPUT: Yes
